# MEASUREMENT_TARGET: Solute carrier family 12 member 5 (Homo sapiens) (UniProt Q9H2X9)
# Sequence (Q9H2X9 whole entry, looked up): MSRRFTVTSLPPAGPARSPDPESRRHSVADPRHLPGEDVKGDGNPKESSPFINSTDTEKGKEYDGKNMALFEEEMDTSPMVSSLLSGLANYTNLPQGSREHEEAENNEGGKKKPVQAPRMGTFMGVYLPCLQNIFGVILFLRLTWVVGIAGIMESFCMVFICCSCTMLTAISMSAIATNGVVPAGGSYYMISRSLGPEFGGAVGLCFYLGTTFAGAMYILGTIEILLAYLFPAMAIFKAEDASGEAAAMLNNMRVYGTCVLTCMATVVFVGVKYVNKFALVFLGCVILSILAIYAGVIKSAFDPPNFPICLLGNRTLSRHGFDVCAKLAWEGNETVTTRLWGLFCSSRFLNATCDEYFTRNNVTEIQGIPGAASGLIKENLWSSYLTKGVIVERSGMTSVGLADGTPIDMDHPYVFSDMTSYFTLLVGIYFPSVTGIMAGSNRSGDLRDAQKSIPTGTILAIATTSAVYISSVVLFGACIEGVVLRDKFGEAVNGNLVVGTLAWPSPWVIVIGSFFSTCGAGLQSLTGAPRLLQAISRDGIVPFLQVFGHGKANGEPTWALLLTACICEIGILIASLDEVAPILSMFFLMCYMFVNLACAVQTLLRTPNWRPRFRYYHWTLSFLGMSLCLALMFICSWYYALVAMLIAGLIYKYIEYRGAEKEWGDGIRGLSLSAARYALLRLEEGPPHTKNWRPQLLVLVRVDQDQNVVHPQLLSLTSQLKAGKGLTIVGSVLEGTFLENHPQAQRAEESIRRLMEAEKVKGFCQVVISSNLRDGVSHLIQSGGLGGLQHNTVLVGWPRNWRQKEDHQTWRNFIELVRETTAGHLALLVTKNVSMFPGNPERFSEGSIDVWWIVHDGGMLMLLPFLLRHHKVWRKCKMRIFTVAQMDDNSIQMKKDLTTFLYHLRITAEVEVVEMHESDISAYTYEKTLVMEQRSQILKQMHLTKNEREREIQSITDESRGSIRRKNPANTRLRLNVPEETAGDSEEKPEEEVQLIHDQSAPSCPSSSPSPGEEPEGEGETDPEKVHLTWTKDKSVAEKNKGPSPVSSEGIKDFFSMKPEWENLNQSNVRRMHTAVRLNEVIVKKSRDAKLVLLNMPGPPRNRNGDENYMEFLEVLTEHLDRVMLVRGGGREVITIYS
# ASSAY_COMMENT: modulation of human KCC2 ion transport – cell-based, HEK293 KCC2, FluoZin-2 fluorescence, MLSMR, primary screen (AID 1456);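 note: slope of fluorescence scaled to starting intensity during 10 to 20 s after thallium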
# MEASUREMENT_CONDITIONS: KCC2 cells, thallium flux FluoZin-2 fluorescence; at 10 µM
Screen size: about 190,000 compounds; about 4,100 (2.2%) were called active. This excerpt belongs to a sample that is enriched for actives.
Please use rule met whenever B-score of Tl+ flux slope (higher = more flux/activation; lower = inhibition) is not below 0.3, and rule not met whenever it is.

CCN1CCN(c2nc(Nc3cccc(F)c3)nc(N)c2[N+](=O)[O-])CC1: rule not met

Asked: Does CC(C)CN(CC(C)C)CC(O)CN(c1ccccc1)S(=O)(=O)c1ccccc1[N+](=O)[O-] (stereo unspecified) have a reported B-score of Tl+ flux slope (higher = more flux/activation; lower = inhibition) of at least 0.3?
Given back: rule not met

Asked: Determine whether measured B-score of Tl+ flux slope (higher = more flux/activation; lower = inhibition) meets or exceeds 0.3 for Cc1ccc(C(=O)NNc2ncnc3ccccc23)cc1
Given back: rule met

Asked: hey, is B-score of Tl+ flux slope (higher = more flux/activation; lower = inhibition) for this one >= 0.3? CCn1c(=O)cc(O)c2ccccc21
Given back: rule not met

Asked: Textbook exercise: given the entry O=[N+]([O-])c1cc([N+](=O)[O-])c2cccnc2c1O , state whether its B-score of Tl+ flux slope (higher = more flux/activation; lower = inhibition) is greater than or equal to 0.3.
Given back: rule not met

Asked: Given the entry CC(C)CC(=O)NC(=S)NNC(=O)c1cccc([N+](=O)[O-])c1 , answer whether its B-score of Tl+ flux slope (higher = more flux/activation; lower = inhibition) meets or surpasses 0.3.
Given back: rule met

Values from PubChem BioAssay AID1456
